TARGET: Mcl-1/Bim interaction, recombinant human Mcl-1 (171-327) (Homo sapiens, UniProt Q07820)
Construct: made in house
Sequence (Q07820 171-327): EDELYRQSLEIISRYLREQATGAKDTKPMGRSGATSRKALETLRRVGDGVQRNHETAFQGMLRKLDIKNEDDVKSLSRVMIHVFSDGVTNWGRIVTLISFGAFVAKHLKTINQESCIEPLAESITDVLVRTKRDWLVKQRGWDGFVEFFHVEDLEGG
PROTOCOL_TEXT: Cell free Mcl-1: Bim Affinity Assay (Mcl-1 HTRF)
Type: binding
RUN_CONDITIONS: TR-FRET, 0.1 nM Mcl-1 (171-327), 0.05 nM biotin-Bim (51-76)
Kindly supply the reported IC50 values for the records listed here.
Give bare numbers, in nM.

Below are worked cases with known answers.
Query block: Identify measured IC50 associated with C[C@H]1C/C=C/[C@H](O)[C@@H]2CC[C@H]2CN2C[C@@]3(CCCc4cc(Cl)ccc43)COc3ccc(cc32)C(=O)NS(=O)(=O)N1CCN1CCOCC1
Result block: 2.31

Query block: Provide measured IC50 value, entry: O=C1NS(=O)(=O)[C@H]2C[C@H](CC[C@H](O)[C@@H]3CC[C@H]3CN3C[C@@]4(CCCc5cc(Cl)ccc54)COc4ccc1cc43)C2
Result block: 1.43

Query block: Annotate the compound CC[C@@H]1CC/C=C/[C@@H](NC(=O)C(C)C)[C@@H]2CC[C@H]2CN2C[C@@]3(CCCc4cc(Cl)ccc43)COc3ccc(cc32)C(=O)NS1(=O)=O with its measured IC50.
Result block: 0.947

Query block: Item O=C1NS(=O)(=O)N2CCOC[C@H]2C/C=C\[C@H](O)[C@@H]2CC[C@H]2CN2C[C@@]3(CCCc4cc(Cl)ccc43)COc3ccc1cc32 (single isomer, unassigned) : provide IC50
Result block: 2.11

Query block: Output IC50 of CC[C@@H]1CCCC[C@H](OCC(=O)OC)[C@@H]2CC[C@H]2CN2C[C@@]3(CCCc4cc(Cl)ccc43)COc3ccc(cc32)C(=O)NS1(=O)=O
Result block: 2.01

Query block: Identify measured IC50 associated with CCN1CC/C=C/[C@H](OC)[C@@H]2CC[C@H]2CN2C[C@@]3(CCCc4cc(Cl)ccc43)COc3ccc(cc32)C(=O)NS1(=O)=O
Result block: 2.3

Query block: Output measured IC50 for this item: CCOC[C@@H]1[C@@H](C)C/C=C/[C@H](O)[C@@H]2CC[C@H]2CN2C[C@@]3(CCCc4cc(Cl)ccc43)COc3ccc(cc32)C(=O)NS1(=O)=O (single isomer, unassigned)
Result block: 0.331

Query block: State its IC50: Cc1nnc(CO[C@H]2/C=C/CC[C@@H](C)S(=O)(=O)NC(=O)c3ccc4c(c3)N(C[C@@H]3CC[C@H]32)C[C@@]2(CCCc3cc(Cl)ccc32)CO4)o1
Result block: 0.267

Record IC50 for all entries; do not skip any.
1. CC[C@@H]1CC/C=C/[C@H](OCC(=O)N2CCS(=O)(=O)CC2)[C@@H]2CC[C@H]2CN2C[C@@]3(CCCc4cc(Cl)ccc43)COc3ccc(cc32)C(=O)NS1(=O)=O
2. C[C@@H]1[C@@H](C)C/C=C/[C@H](OCC(=O)N2CC[C@H](O)C2)[C@@H]2CC[C@H]2CN2C[C@@]3(CCCc4cc(Cl)ccc43)COc3ccc(cc32)C(=O)NS1(=O)=O
3. C[C@@H]1[C@@H](C)S(=O)(=O)NC(=O)c2ccc3c(c2)N(C[C@@H]2CC[C@H]2[C@@H](OCC(=O)O)/C=C/[C@@H]1C)C[C@@]1(CCCc2cc(Cl)ccc21)CO3
4. C[C@@H]1/C=C/[C@H](O)[C@@H]2CC[C@H]2CN2C[C@@]3(CCCc4cc(Cl)ccc43)COc3ccc(cc32)C(=O)NS(=O)(=O)[C@H](C)C1

Result block:
1. 0.373
2. 0.109
3. 0.0197
4. 0.275

Would you mind listing IC50 for each of the following compounds?
1. O=C1NS(=O)(=O)[C@@H]2CCOC[C@H]2C/C=C/[C@H](O)[C@@H]2CC[C@H]2CN2C[C@@]3(CCCc4cc(Cl)ccc43)COc3ccc1cc32 (single isomer, unassigned)
2. CS(=O)(=O)CCO[C@@H]1CCCCCS(=O)(=O)NC(=O)c2ccc3c(c2)N(C[C@@H]2CC[C@H]21)C[C@@]1(CCCc2cc(Cl)ccc21)CO3
3. CC1CC(N(C)C)CC(O)C2CCC2CN2CC3(CCCc4cc(Cl)ccc43)COc3ccc(cc32)C(=O)NS(=O)(=O)C1C (single isomer, unassigned)
4. COCCO[C@H]1/C=C/C[C@H](C)N(CCOC)S(=O)(=O)NC(=O)c2ccc3c(c2)N(C[C@@H]2CC[C@H]21)C[C@@]1(CCCc2cc(Cl)ccc21)CO3 (single isomer, unassigned)
5. CCC1CCC(OC)C=CC2CCC2CN2CC3(CCCc4cc(Cl)ccc43)COc3ccc(cc32)C(=O)NS1(=O)=O (single isomer, unassigned)
6. O=C1NS(=O)(=O)CCC/C=C/[C@@H](OCCO)[C@@H]2CC[C@H]2CN2C[C@@]3(CCCc4cc(Cl)ccc43)COc3ccc1cc32
7. O=C1NS(=O)(=O)N(CC2CC2)CC/C=C/[C@H](O)[C@@H]2CC[C@H]2CN2C[C@@]3(CCCc4cc(Cl)ccc43)COc3ccc1cc32
8. C[C@@H]1CC/C=C/[C@H](OCc2ncccn2)[C@@H]2CC[C@H]2CN2C[C@@]3(CCCc4cc(Cl)ccc43)COc3ccc(cc32)C(=O)NS1(=O)=O

Result block:
1. 0.273
2. 3.48
3. 0.701
4. 0.529
5. 6.04
6. 1.99
7. 0.85
8. 0.275

Query block: Provide measured IC50 value, entry: C[C@H]1[C@H]2/C=C/[C@H](O)[C@@H]3CC[C@H]3CN3C[C@@]4(CCCc5cc(Cl)ccc54)COc4ccc(cc43)C(=O)NS(=O)(=O)[C@H]1CCC2 (single isomer, unassigned)
Result block: 30.8
